Attribute: Therapeutic Index = IC50 resting PBMC/IC50 cancer cell
- Tested on: PC3
- Measurement description: ATP-dependent cell viability assay (Cell Titer Glo), Example 12
- Measurement conditions: human, 3 days
Readout name: Therapeutic Index = IC50 resting PBMC/IC50 cancer cell

- Compound: "CCCC(=O)OC1(C(=O)CO)CCC2C3CCC4=CC(=O)CC[C@]4(C)C3=CC[C@@]21C (single isomer, unassigned)"
  Target entity: "PC3"
  Test result: 3
- Compound: "CCC(=O)O[C@]1(C(=O)CO)CC[C@H]2[C@@H]3CCC4=CC(=O)CC[C@]4(C)[C@H]3CC[C@@]21C [CB-03-01, cortexolone 17α-propionate]"
  Target entity: "PC3"
  Test result: 0
- Compound: "CCCC(=O)OCC(=O)[C@@]1(OC(=O)CCC)CCC2C3CCC4=CC(=O)CC[C@]4(C)C3CC[C@@]21C (stereo partly shown)"
  Target entity: "PC3"
  Test result: 3
- Compound: "CCCCC(=O)O[C@]1(C(=O)CO)CC[C@H]2[C@@H]3CCC4=CC(=O)CC[C@]4(C)[C@H]3CC[C@@]21C [CB-03-05, cortexolone 17α-valerate]"
  Target entity: "PC3"
  Test result: 1

---

- Tested on: MCF7
- Measurement description: In vitro proliferation / cytotoxic assay on breast cancer cells (Examples 14, 25)
- Measurement conditions: human, 3 days
Attribute: Therapeutic Index = IC50 stimulated PBMC/IC50 cancer cell
Readout name: Therapeutic Index = IC50 stimulated PBMC/IC50 cancer cell

- Compound: "CCCC(=O)OCC(=O)[C@@]1(OC(=O)CCC)CCC2C3CCC4=CC(=O)CC[C@]4(C)C3CC[C@@]21C (stereo partly shown) [CB-03-03]"
  Test result: 4
- Compound: "CCC(=O)O[C@]1(C(=O)CO)CC[C@H]2[C@@H]3CCC4=CC(=O)CC[C@]4(C)[C@H]3CC[C@@]21C [CB-03-01, cortexolone 17α-propionate]"
  Test result: 0
- Compound: "CCCCC(=O)O[C@]1(C(=O)CO)CC[C@H]2[C@@H]3CCC4=CC(=O)CC[C@]4(C)[C@H]3CC[C@@]21C [CB-03-05, cortexolone 17α-valerate]"
  Test result: 3
- Compound: "CCCC(=O)OC1(C(=O)CO)CCC2C3CCC4=CC(=O)CC[C@]4(C)C3=CC[C@@]21C (single isomer, unassigned) [CB-03-04]"
  Test result: 4

---

- Test system: MCF7
- Measurement description: In vitro proliferation / cytotoxic assay on breast cancer cells (Examples 14, 25)
- Measurement conditions: Homo sapiens, MCF7, read-out: In vitro proliferation IC50
Attribute: IC50
Readout name: IC50 (µM)

- Molecule: "CCCC(=O)OCC(=O)[C@@]1(OC(=O)CCC)CCC2C3CCC4=CC(=O)CC[C@]4(C)C3CC[C@@]21C (some centres unmarked)"
  Test result: 32
- Molecule: "C[C@]12CCC(=O)C=C1CC[C@@H]1[C@@H]2CC[C@@]2(C)[C@H]1CC[C@]2(OC(=O)c1ccccc1)C(=O)CO [CB-03-06, cortexolone 17α-benzoate]"
  Test result: 25

---

- Tested on: MiaPaca2 (AR low)
- Measurement description: ATP-dependent proliferation assay with 10 nM DHT, pancreatic cancer cells (Examples 3, 4, 7)
- Measurement conditions: MiaPaca2; Experiment 2, nonlinear regression least squares fit, additional experiments
- Procedure: The experimental method consisted of: • 1. […] After 24 hrs, 10 nM DHT (dihydrotestosterone) with or without anti-androgen compounds, or DMSO vehicle (negative control) was added to the cultures. • 3. Data from Experiment 1 were fitted through sigmoidal dose response curves and analyzed using Prizm statistical analysis software. […] Data from Experiment 1 was fitted through sigmoidal dose response curves and analyzed using Prizm statistical analysis software.
Readout name: IC50 (µM)

- Molecule: "CCCCC(=O)O[C@]1(C(=O)COC(=O)CC)CC[C@H]2[C@@H]3CCC4=CC(=O)CC[C@]4(C)[C@H]3CC[C@@]21C [CB-03-10, cortexolone 17α-valerate-21-propionate]"
  Target entity: "MiaPaca2 (AR low)"
  Test result: 37

---

Attribute: Therapeutic Index = IC50 resting PBMC/IC50 cancer cell
- Tested on: LNCaP
- Measurement description: ATP-dependent cell viability assay (Cell Titer Glo), Example 12
- Measurement conditions: human, 3 days
Readout name: Therapeutic Index = IC50 resting PBMC/IC50 cancer cell

- Compound: "CCC(=O)O[C@]1(C(=O)CO)CC[C@H]2[C@@H]3CCC4=CC(=O)CC[C@]4(C)[C@H]3CC[C@@]21C [CB-03-01, cortexolone 17α-propionate]"
  Test result: 0
- Compound: "CCCCC(=O)O[C@]1(C(=O)CO)CC[C@H]2[C@@H]3CCC4=CC(=O)CC[C@]4(C)[C@H]3CC[C@@]21C [CB-03-05, cortexolone 17α-valerate]"
  Test result: 4
- Compound: "CCCC(=O)OC1(C(=O)CO)CCC2C3CCC4=CC(=O)CC[C@]4(C)C3=CC[C@@]21C (single isomer, unassigned)"
  Test result: 8
- Compound: "CCCC(=O)OCC(=O)[C@@]1(OC(=O)CCC)CCC2C3CCC4=CC(=O)CC[C@]4(C)C3CC[C@@]21C (stereo partly shown)"
  Test result: 9

---

- System: LNCaP (AR+)
- Measurement description: ATP-dependent proliferation assay with 10 nM DHT, prostate cancer cells (Examples 1, 2)
- Assay type: cell-based, human
- Measurement conditions: Homo sapiens, LNCaP/AR
- Procedure: The experiment was performed to test and to define the antitumor activity in vitro of cortexolone 17α-benzoate on LNCaP (AR^+) and PC3 (AR^−), representative of Prostatic cancer cell lines with Androgen receptor positive or negative expression, respectively. The experimental method consisted of: • 1. […] Data from Experiment 1 was fitted through sigmoidal dose response curves and analyzed using Prizm statistical analysis software. […]
pIC50: −log10 of the molar value.

- Compound: "C[C@]12CCC(=O)C=C1CC[C@@H]1[C@@H]2CC[C@@]2(C)[C@H]1CC[C@]2(OC(=O)c1ccccc1)C(=O)CO [CB-03-06, cortexolone 17α-benzoate]"
  pIC50: 4.92

---

- Tested on: Panc1
- Measurement description: ATP-dependent cell viability assay (Cell Titer Glo), Example 12
- Measurement conditions: human, 3 days
Readout name: Therapeutic Index = IC50 stimulated PBMC/IC50 cancer cell

- Molecule: "CCC(=O)O[C@]1(C(=O)CO)CC[C@H]2[C@@H]3CCC4=CC(=O)CC[C@]4(C)[C@H]3CC[C@@]21C [CB-03-01, cortexolone 17α-propionate]"
  Test result: 0
- Molecule: "CCCC(=O)OC1(C(=O)CO)CCC2C3CCC4=CC(=O)CC[C@]4(C)C3=CC[C@@]21C (single isomer, unassigned)"
  Test result: 1
- Molecule: "CCCC(=O)OCC(=O)[C@@]1(OC(=O)CCC)CCC2C3CCC4=CC(=O)CC[C@]4(C)C3CC[C@@]21C (stereo partly shown)"
  Test result: 2
- Molecule: "CCCCC(=O)O[C@]1(C(=O)CO)CC[C@H]2[C@@H]3CCC4=CC(=O)CC[C@]4(C)[C@H]3CC[C@@]21C [CB-03-05, cortexolone 17α-valerate]"
  Test result: 2

---

- Measurement description: In vivo pharmacokinetics in plasma
- Measurement conditions: mouse; mice; SC 40 mg/kg; plasma

- Compound: "C[C@]12CCC(=O)C=C1CC[C@@H]1[C@@H]2CC[C@@]2(C)[C@H]1CC[C@]2(OC(=O)c1ccccc1)C(=O)CO [CB-03-06, cortexolone 17α-benzoate]"
  AUC, µg·h/mL: 1.62

---

- Tested on: LNCaP
- Measurement description: ATP-dependent cell viability assay (Cell Titer Glo), Example 12
- Measurement conditions: Homo sapiens, LNCaP, read-out: In vitro proliferation IC50
pIC50: −log10 of the molar value.

- Compound: "C[C@]12CCC(=O)C=C1CC[C@@H]1[C@@H]2CC[C@@]2(C)[C@H]1CC[C@]2(OC(=O)c1ccccc1)C(=O)CO [CB-03-06, cortexolone 17α-benzoate]"
  pIC50: 4.92
- Compound: "CCCC(=O)OCC(=O)[C@@]1(OC(=O)CCC)CCC2C3CCC4=CC(=O)CC[C@]4(C)C3CC[C@@]21C (stereo partly drawn) [CB-03-03]"
  pIC50: 4.80
- Compound: "CCCCC(=O)O[C@]1(C(=O)CO)CC[C@H]2[C@@H]3CCC4=CC(=O)CC[C@]4(C)[C@H]3CC[C@@]21C [CB-03-05, cortexolone 17α-valerate]"
  pIC50: 4.49

---

- Tested on: MiaPaca2 (AR low)
- Measurement description: ATP-dependent proliferation assay with 10 nM DHT, pancreatic cancer cells (Examples 3, 4, 7)
- Measurement conditions: MiaPaca2; Example 7, Experiment 2
pIC50: −log10 of the molar value.

- Molecule: "CCCCC(=O)O[C@]1(C(=O)COC(=O)CC)CC[C@H]2[C@@H]3CCC4=CC(=O)CC[C@]4(C)[C@H]3CC[C@@]21C [CB-03-10, cortexolone 17α-valerate-21-propionate]"
  pIC50: 4.43
